Tested on: ICS
test method notes: qHTS profiling for inhibitors of Plasmodium falciparum proliferation (AID 504749); also: nearly all actives have a fitted effect of over 60% in size
test settings: P. falciparum in erythrocytes, SYBR Green DNA, 72 h; series mostly up to 28.7 µM
Inconclusive results are not listed. Active and inactive are the calls of the source. Calls follow the shape of the dose curve; as a rule, active = well fitted inhibition curve with a large enough effect; inconclusive = small, poorly fitted or top-dose-only effect; inactive = flat fitted curve, though single readings scatter.
Return exactly one item of 1 (yes) for active, 0 (no) for inactive

Some entries whose results are on file:
• CCOc1ccc(NC(=S)Nc2ccc(OCC)cc2)cc1 = 0 (no)
• OC[C@H]1O[C@@](CO)(O[C@H]2O[C@H](CO)[C@@H](O)[C@H](O)[C@H]2O)[C@@H](O)[C@@H]1O = 0 (no)
• CC(=O)NCCCS(=O)(=O)O = 0 (no)
• CC(=O)N[C@@H]1C(O[C@H]2O[C@H](C(=O)O)C(O)[C@H](O)[C@H]2O)[C@H](O)[C@@H](CO)O[C@H]1O[C@@H]1C(C(=O)O)O[C@@H](O[C@H]2[C@H](O)[C@@H](CO)OC(O)[C@@H]2NC(C)=O)[C@H](O)[C@H]1O (stereo partly drawn) = 0 (no)
• N=C(N)c1ccc(/C=C/c2ccc(C(=N)N)cc2O)cc1 = 1 (yes)

Q: Recorded test outcome, item CCN(CC)CCOc1ccccc1OC
A: 0 (no)

Q: Recorded test outcome, item C/C=C/C=C/C(=O)O
A: 0 (no)

Q: Recorded test outcome, item CCN(CC)CCOC(=O)c1cccnc1
A: 0 (no)

Reference source for all entries: PubChem BioAssay (NCATS)
